Ref: PubChem BioAssay AID1963443

Test system: MDA-MB-231 complex spheroids, growth inhibition
Assay: Anticancer human tumor MDA-MB-231 cell line growth inhibition [Asc];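 also: spheroids exposed to compounds for 7 days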
Conditions: second compound 0.01 µM; first compound 0.316 µM; stronger effect = lower value
assay metric: viability, T/C (%)
Reply numerically in %, unit not repeated.

Return reported viability, T/C; argument: O=C(c1cc(Cc2n[nH]c(=O)c3ccccc23)ccc1F)N1CCN(C(=O)C2CC2)CC1 + CNC(C)C(=O)NC1CN(S(=O)(=O)c2cccc(S(=O)(=O)N3CCC4CCC(C(=O)NC(c5ccccc5)c5ccccc5)N4C(=O)C(NC(=O)C(C)NC)C3)c2)CCC2CCC(C(=O)NC(c3ccccc3)c3ccccc3)N2C1=O
2.12

Which measured viability, T/C value corresponds to C=CC(=O)N1CCN(c2nc(=O)n(-c3c(C)ccnc3C(C)C)c3nc(-c4c(O)cccc4F)c(F)cc23)C(C)C1 (configuration not stated) + CNC(C)C(=O)NC1CN(S(=O)(=O)c2cccc(S(=O)(=O)N3CCC4CCC(C(=O)NC(c5ccccc5)c5ccccc5)N4C(=O)C(NC(=O)C(C)NC)C3)c2)CCC2CCC(C(=O)NC(c3ccccc3)c3ccccc3)N2C1=O ?
3.48

Name the reported viability, T/C value associated with the compound O=C(c1ccc(F)c(F)c1Nc1ccc(I)cc1F)N1CC(O)([C@@H]2CCCCN2)C1 + CNC(C)C(=O)NC1CN(S(=O)(=O)c2cccc(S(=O)(=O)N3CCC4CCC(C(=O)NC(c5ccccc5)c5ccccc5)N4C(=O)C(NC(=O)C(C)NC)C3)c2)CCC2CCC(C(=O)NC(c3ccccc3)c3ccccc3)N2C1=O
0.45

Would you kindly share the measured viability, T/C for C#Cc1c(F)ccc2cc(O)cc(-c3ncc4c(N5CC6CCC(C5)N6)nc(OCC56CCCN5CC(F)C6)nc4c3F)c12 (configuration not stated) + CNC(C)C(=O)NC1CN(S(=O)(=O)c2cccc(S(=O)(=O)N3CCC4CCC(C(=O)NC(c5ccccc5)c5ccccc5)N4C(=O)C(NC(=O)C(C)NC)C3)c2)CCC2CCC(C(=O)NC(c3ccccc3)c3ccccc3)N2C1=O ?
2.18

If you can, please state the reported viability, T/C value of C=C(F)C(=O)N1CCN(c2nc(OCC3CCCN3C)nc3c2CCN(c2cccc4cccc(Cl)c24)C3)CC1CC#N (configuration not stated) + CNC(C)C(=O)NC1CN(S(=O)(=O)c2cccc(S(=O)(=O)N3CCC4CCC(C(=O)NC(c5ccccc5)c5ccccc5)N4C(=O)C(NC(=O)C(C)NC)C3)c2)CCC2CCC(C(=O)NC(c3ccccc3)c3ccccc3)N2C1=O .
1.5

Fill in: viability, T/C of CCN1CCN(Cc2ccc(Nc3ncc(F)c(-c4cc(F)c5nc(C)n(C(C)C)c5c4)n3)nc2)CC1 + CNC(C)C(=O)NC1CN(S(=O)(=O)c2cccc(S(=O)(=O)N3CCC4CCC(C(=O)NC(c5ccccc5)c5ccccc5)N4C(=O)C(NC(=O)C(C)NC)C3)c2)CCC2CCC(C(=O)NC(c3ccccc3)c3ccccc3)N2C1=O is ___
2.98

Fill blank: measured viability, T/C of the compound COc1c(OCCCN2CCOCC2)ccc2c3n(c(=NC(=O)c4cnc(N)nc4)nc12)CCN3 + CNC(C)C(=O)NC1CN(S(=O)(=O)c2cccc(S(=O)(=O)N3CCC4CCC(C(=O)NC(c5ccccc5)c5ccccc5)N4C(=O)C(NC(=O)C(C)NC)C3)c2)CCC2CCC(C(=O)NC(c3ccccc3)c3ccccc3)N2C1=O is ____.
2.42

###

Test system: MDA-MB-231 complex spheroids, growth inhibition
Test: Anticancer human tumor MDA-MB-231 cell line growth inhibition [Asc];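 also: spheroids exposed to compounds for 7 days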
Conditions: second compound 0.03 µM; first compound 0.1 µM; stronger effect = lower value
Description: Multicellular complex tumor spheroid response to apoptosis pathway targeting inhibitors Alrizomadlin, Pelcitoclax, and Dasminapant in combination with a variety of drugs and investigational agents in selected tumor cell lines […] Compounds. […] If the clinical Cmax for an agent had not been determined, the highest concentration tested was 10 microM. […]
What viability, T/C was measured for each of the following?
The reply should be a number in %, with the unit left off.

Request - read-out viability, T/C | tested on MDA-MB-231 complex spheroids, growth inhibition | compound Cn1ncnc1[C@H]1c2n[nH]c(=O)c3cc(F)cc(c23)N[C@@H]1c1ccc(F)cc1 + CCN1C(C(=O)NC23CCC(C(=O)O)(CC2)CC3)C(c2cccc(Cl)c2F)C2(C(=O)Nc3cc(Cl)ccc32)C12CCCCC2
86

Test system MDA-MB-231 complex spheroids, growth inhibition; read-out viability, T/C; what value for O=C(c1cc(Cc2n[nH]c(=O)c3ccccc23)ccc1F)N1CCN(C(=O)C2CC2)CC1 + CCN1C(C(=O)NC23CCC(C(=O)O)(CC2)CC3)C(c2cccc(Cl)c2F)C2(C(=O)Nc3cc(Cl)ccc32)C12CCCCC2 ?
93.9

What viability, T/C appears in the records for this compound with MDA-MB-231 complex spheroids, growth inhibition? C#Cc1c(F)ccc2cc(O)cc(-c3ncc4c(N5CC6CCC(C5)N6)nc(OCC56CCCN5CC(F)C6)nc4c3F)c12 (stereo not drawn) + CCN1C(C(=O)NC23CCC(C(=O)O)(CC2)CC3)C(c2cccc(Cl)c2F)C2(C(=O)Nc3cc(Cl)ccc32)C12CCCCC2
96.5
